# Tested on: SNB-75 CNS
# PROCEDURE TEXT: NCI tumour cell line growth inhibition, 48 h

{"columns": ["MOLECULE", "UNIT SYMBOL", "QUALIFIER SIGN", "TGI"],
 "data": [
  ["C=C1C(=O)O[C@H]2[C@H]1CC(=O)/C(C)=C/CC[C@@]1(C)O[C@@H]21", "µM", "=", 31.6],
  ["Cc1c(C)c2c(c(N)c1C#N)C(=O)N(CCN1CCNCC1)C2=O", "µM", "=", 77],
  ["COc1cc(O)c2c(=O)cc(C3(O)C=CC(=O)C=C3)oc2c1", "µM", "=", 3.06],
  ["O=C(O)CCCOc1cc(-c2ccccc2F)nc2cc3c(cc12)OCO3", "µM", ">", 100],
  ["S=c1sc2nc(Cl)nc(Cl)c2s1", "µM", "=", 34.8],
  ["CN(CCCl)c1ccc(/C=C/C2=[N+](C)c3ccccc3C2(C)C)cc1", "µM", "=", 6.91],
  ["NC(N)=NCCCC(NC(=O)OCCCCCCn1ccc(N)nc1=O)C(=O)O (stereo not given)", "µM", ">", 100],
  ["Cc1ccc(/C=C/C(=N/NC(=O)N/N=C(/C=C/c2ccc(C)cc2)C(C)(C)CN2CCCCC2)C(C)(C)CN2CCCCC2)cc1", "µM", "=", 3.08],
  ["Cc1ccsc1/C=N/Nc1nncc2ccccc12", "µM", ">", 100],
  ["O=c1[nH]n(Cc2ccccn2)c2ccc([N+](=O)[O-])cc12", "µM", ">", 100]
]}

###

Items are presented alongside their recorded TGI.
# System: OVCAR-8 ovarian
# PROCEDURE TEXT: NCI tumour cell line growth inhibition, 48 h

{"columns": ["MOLECULE", "TGI"],
 "data": [
  ["O=c1cc(-c2ccc(Cl)cc2)oc2cc(OCCCOc3ccc4c(=O)cc(-c5ccc(Cl)cc5)oc4c3)ccc12", "> 100 µM"],
  ["CSc1nc2[nH]c(=O)c(C)nc2c(=O)[nH]1", "> 100 µM"],
  ["[N-]=[N+]=NC(CBr)c1cn([C@H]2C[C@H](O)[C@@H](CO)O2)c(=O)[nH]c1=O (some centres undefined)", "> 100 µM"],
  ["COC(=O)[C@@]12OC[C@]34C([C@@H](O)C1O)[C@@]1(C)CC(=O)C(OC(=O)/C=C(/c5ccccc5)C(F)(F)F)=C(C)C1C[C@H]3OC(=O)[C@H](O)[C@H]42 (some centres undefined)", "> 50 µM"],
  ["COc1ccc(-c2csc(-c3cc(Cl)cc(Cl)c3Cl)n2)cc1", "> 100 µM"],
  ["COc1cc(-c2cc(=O)c3cc(C)c(C)c(C(=O)O)c3o2)cc(OC)c1OC", "> 100 µM"],
  ["O=C1/C(=C/c2ccco2)N=C(c2ccccc2)N1c1cc2cc(Sc3ccccc3)ccc2[nH]1", "> 25 µM"],
  ["COc1ccc(Cc2nccc3cc(OC)c(OC)cc23)cc1OC", "> 100 µM"],
  ["CCOC(=O)c1ccc(-n2c(SCC)nc3sc(C)c(C)c3c2=O)cc1", "> 100 µM"]
]}

###

# Tested on: MCF7 breast
# PROCEDURE TEXT: NCI tumour cell line growth inhibition, 48 h
Items are presented alongside their recorded TGI.
RECORDED ENDPOINT: TGI

{"columns": ["MOLECULE", "REPORTED RESULT"],
 "data": [
  ["Cc1cc(NS(=O)(=O)c2ccc(Nc3c4ccccc4nc4ccc(C(=O)Nc5ccc(S(N)(=O)=O)cc5)cc34)cc2)no1", "> 100 µM"],
  ["O=[N+]([O-])/C(C(Cl)=C(Cl)Cl)=C(/Sc1ccccc1)N1CCCCC1", "> 100 µM"],
  ["Nc1c(C(=O)Nc2ccccc2F)sc2nc3c(cc12)C(=O)CCC3", "> 100 µM"],
  ["COc1cc2c(cc1OC)C(N)CC2=O (centres undefined)", "> 100 µM"],
  ["C=CCOC(=O)[C@@H]1C[C@@H](OC(C)(C)C)CN1C(=O)[C@@H]1[C@H]2OC(C)(C)O[C@H]2CN1C(=O)OCC1c2ccccc2-c2ccccc21", "> 100 µM"],
  ["NC(=O)NC(=O)c1cccc(NC(=O)CBr)c1", "1.61 µM"],
  ["O=C(c1ccc(Br)cc1)n1c2ccc(Br)cc2c2nc3ccccc3nc21", "> 100 µM"],
  ["C#CCOc1cccc(Nc2ncnc3ccc(NC(=O)CCl)cc23)c1", "14.4 µM"],
  ["CC(=O)OC1CC[C@]2(C)C3CC[C@@]4(C)C(CCC4[C@H](C)CCCC(C)C)[C@@H]3CCC2(Br)C1 (some centres undefined)", "23.3 µM"]
]}

###

# Tested on: SW-620 colon
# PROCEDURE TEXT: NCI tumour cell line growth inhibition, 48 h

{"columns": ["COMPOUND", "TESTED SYSTEM", "TGI"],
 "data": [
  ["COc1cc(/C=C/c2cc(/C=C/c3ccc(O)c(OC)c3)oc(=O)c2)ccc1O", "SW-620 colon", "> 24.5 µM"],
  ["COCCOCC(=O)N(CCn1ccc(NC(c2ccccc2)(c2ccccc2)c2ccccc2)nc1=O)CCn1cnc2nc(N)[nH]c(=O)c21", "SW-620 colon", "> 100 µM"],
  ["CCN1C(=O)N(c2ccccc2)C2NN=c3s/c(=C4\\C(=O)N(C(C)C)c5ccccc54)c(=O)n3C21 (centres undefined)", "SW-620 colon", "> 100 µM"],
  ["OC(c1ccccn1)C1CNc2ccccc21 (centres undefined)", "SW-620 colon", "> 100 µM"],
  ["C=CCNC1=C2C[C@@H](C)C[C@@H](OC)[C@H](OC(=O)CN)[C@H](C)/C=C(\\C)[C@@H](OC(N)=O)[C@H](OC)/C=C\\C=C(/C)C(=O)NC(=CC1=O)C2=O", "SW-620 colon", "> 100 µM"],
  ["C=C(C)[C@@H]1CC[C@]2(COC3CCCCO3)CC[C@]3(C)[C@H](CC[C@@H]4[C@@]5(C)C=C(C=O)C(=O)C(C)(C)[C@@H]5CC[C@]43C)[C@@H]12 (some centres undefined)", "SW-620 colon", "2.87 µM"],
  ["CC(=O)Nc1ccc(C(=O)NN2C(=O)C(Cl)C2c2ccccc2O)cc1 (centres undefined)", "SW-620 colon", "> 100 µM"],
  ["CC(=O)[O][Hg][c]1ccccc1", "SW-620 colon", "0.492 µM"],
  ["O=c1[nH]n(Cc2ccccn2)c2ccc([N+](=O)[O-])cc12", "SW-620 colon", "> 100 µM"],
  ["COc1ccc(C(=O)c2cc3c(N)c(C(=O)Nc4cccc(Cl)c4C)sc3nc2C)cc1", "SW-620 colon", "> 25 µM"],
  ["COC(=O)c1ccccc1/C=C1\\Cc2cc(C)c(C)cc2C1=O", "SW-620 colon", "> 100 µM"],
  ["CC1(C)CC(=O)c2c(nc(SSc3nc4c(c(-c5ccccc5)c3C#N)C(=O)CC(C)(C)C4)c(C#N)c2-c2ccccc2)C1", "SW-620 colon", "> 10 µM"],
  ["O=C(CC(=O)C1CCOC1=O)C(=O)Nc1ccc(Cl)cc1Cl (centres undefined)", "SW-620 colon", "> 100 µM"],
  ["COc1ccc2c(c1)CCC1=CC3(CCC12C)SCCS3 (centres undefined)", "SW-620 colon", "> 10 µM"],
  ["c1ccc(C[n+]2cccc(-c3cc4ccccc4[nH]3)c2)cc1", "SW-620 colon", "> 100 µM"],
  ["CCOC(=O)c1ccc(-n2c(SCC)nc3sc(C)c(C)c3c2=O)cc1", "SW-620 colon", "> 100 µM"],
  ["CNCCCNc1nc2ccccc2c2c(=O)c3cc(Cl)ccc3sc12", "SW-620 colon", "3.09 µM"],
  ["Nc1nc(Cl)c2nnn(CC3CCC(CO)C3)c2n1 (centres undefined)", "SW-620 colon", "> 100 µM"],
  ["COc1cnc2c(c1)C(=O)c1c-2n(CCCN2CCCC2)c(=O)c2cc(F)ccc12", "SW-620 colon", "2.27 µM"]
]}

###

# Tested on: UACC-62 melanoma
# PROCEDURE TEXT: NCI tumour cell line growth inhibition, 48 h; in the data active means GI50 below about 0.43 µM; inactive means the rest
Possible outcomes: True (active), False (inactive)

{"columns": ["MOLECULE", "GROUP"],
 "data": [
  ["Cc1nc(N)sc1C(=O)Nc1cc(C(=O)NCCCN(C)C)n(C)c1", "False"],
  ["COc1ccc(-c2ccc(/C=N/n3c(C)nn(CN4CCN(C)CC4)c3=S)o2)c([N+](=O)[O-])c1", "False"],
  ["CCCSC1=NC2C(N(CC)C(=O)N2CC)N1/N=C/C=C/c1ccccc1[N+](=O)[O-] (stereo not given)", "False"],
  ["COc1ccc(C(=O)c2cc3c(N)c(C(=O)Nc4cccc(Cl)c4C)sc3nc2C)cc1", "True"],
  ["Cc1nc2n(c(=O)c1CCN1CCC(c3noc4cc(F)ccc34)CC1)CCCC2", "False"],
  ["COc1cc2nc3cc([N+](=O)[O-])ccc3c(NCCCNCC(C)(C)O)c2cc1OC", "True"],
  ["CCC(C(=O)[O-])C(=O)[O-].CCC(C(=O)[O-])C(=O)[O-].N.N.NCCCCCCN.[Pt+4].[Pt+4]", "False"],
  ["CC(=O)[O-].O=C([CH-]C(=O)c1ccccc1)c1ccccc1.O=C([CH-]C(=O)c1ccccc1)c1ccccc1.[Y+3]", "False"],
  ["COc1ccc(C(=O)COc2cccc(/C=C3\\CSc4ccc(C)cc4C3=O)c2)cc1", "False"],
  ["CCCCn1sc(=O)n(Cc2ccc(CNC(=O)OCc3ccc4c(Br)cc(Br)c(O)c4n3)cc2)c1=O", "False"],
  ["CCCCCCCC(=O)SCC/C=C/[C@@H]1CC(=O)NCc2nc(co2)C2=N[C@@](C)(CS2)C(=O)N[C@@H](C(C)C)C(=O)O1", "True"],
  ["COc1ccc2c(c1)[n+](=O)c(C(=O)/C=C/c1cc(OC)c(OC)c(OC)c1)c(C)n2[O-]", "False"],
  ["Cc1ccc(S(=O)(=O)Cc2nc(-c3ccc(C(=O)NCc4cccnc4)cc3)oc2C)cc1", "False"],
  ["Nc1c(C(=O)Nc2ccccc2F)sc2nc3c(cc12)C(=O)CCC3", "False"],
  ["COc1ccc(Cn2cc3c(c2-c2cc(OC)c(OC)c(OC)c2)CCc2cnoc2-3)cc1[N+](=O)[O-]", "True"],
  ["C#Cc1cccc(Nc2nc3ccc([N+](=O)[O-])cc3nc2Nc2cccc(C#C)c2)c1", "True"],
  ["O=C1CCc2c(sc3[nH]c(=S)n(Cc4ccccc4)c(=O)c23)C1", "False"],
  ["CN(C[C@@H]1COCCO1)S(=O)(=O)Nc1ccc2ccc3ncc(-c4cnn(C)c4)cc3c(=O)c2c1", "False"],
  ["CCC[CH2][Sn]([CH2]CCC)([O]C(=O)C1CCC(=O)N1)[O]C(=O)C1CCC(=O)N1 (stereo not given)", "True"],
  ["O=C(O)c1ccc2c(c1)nc(Nc1cccc(Cl)c1)c1ccncc12", "False"]
]}
